src = patent US8846699B2

# System: breast cancer cell line, SK-Br3
# Protocol Description: Inhibitory effect on growth of cancer cell line SK-Br3, SRB
# Format: cell-based
# Run Parameters: Homo sapiens, SK-BR-3, 72 h, overexpressed EGFR2 (HER-2)
pIC50: −log10 of the molar value.
Assay Metric: pIC50

[
  {
    "Compound": "C=CC(=O)Nc1cc2c(Nc3ccc(Br)cc3F)ncnc2cc1OCC(C)NC(=O)CC (stereo not shown)",
    "Assay Metric": "pIC50",
    "Readout Number": 7.15
  },
  {
    "Compound": "C=CC(=O)Nc1cc2c(Nc3ccc(Br)cc3F)ncnc2cc1OCCN",
    "Assay Metric": "pIC50",
    "Readout Number": 6.84
  },
  {
    "Compound": "C=CC(=O)Nc1cc2c(Nc3ccc(Br)cc3F)ncnc2cc1OCCNC(=O)CN1CCN(C)CC1",
    "Assay Metric": "pIC50",
    "Readout Number": 6.95
  },
  {
    "Compound": "C=CC(=O)Nc1cc2c(Nc3ccc(Br)cc3F)ncnc2cc1OCCNC(=O)C1CC1",
    "Assay Metric": "pIC50",
    "Readout Number": 7.44
  }
]

---

# Tested on: breast cancer cell line, SK-Br3
# Protocol Description: Inhibitory effect on growth of cancer cell line SK-Br3, SRB
# Type: cell-based
# Run Parameters: Homo sapiens, SK-BR-3, 72 h, overexpressed EGFR2 (HER-2)
Response field label: string, one of met (IC50 strictly below 200 nM) or not met.

[
  {
    "Input Smiles": "C=CC(=O)Nc1cc2c(Nc3ccc(Br)cc3F)ncnc2cc1OCCCNC(=O)NCC",
    "Assigned Class": "not met"
  },
  {
    "Input Smiles": "C=CC(=O)Nc1cc2c(Nc3ccc(Br)cc3F)ncnc2cc1OCC1CCN(C(C)=O)CC1",
    "Assigned Class": "not met"
  },
  {
    "Input Smiles": "C=CC(=O)Nc1cc2c(Nc3ccc(Cl)cc3F)ncnc2cc1OCCNC(C)=O",
    "Assigned Class": "met"
  },
  {
    "Input Smiles": "C=CC(=O)Nc1cc2c(Nc3ccc(Br)cc3F)ncnc2cc1OCCNC",
    "Assigned Class": "not met"
  },
  {
    "Input Smiles": "C=CC(=O)Nc1cc2c(Nc3ccc(Br)c(Cl)c3F)ncnc2cc1OCCNC(=O)CO",
    "Assigned Class": "met"
  },
  {
    "Input Smiles": "C=CC(=O)Nc1cc2c(Nc3ccc(Br)cc3F)ncnc2cc1OCCNC(=O)C=CCC",
    "Assigned Class": "met"
  },
  {
    "Input Smiles": "C=CC(=O)Nc1cc2c(Nc3ccc(Br)cc3F)ncnc2cc1OCCNC(=S)NCC",
    "Assigned Class": "met"
  },
  {
    "Input Smiles": "C=CC(=O)Nc1cc2c(Nc3ccc(Br)cc3F)ncnc2cc1OCCCNC(=O)CS(C)(=O)=O",
    "Assigned Class": "not met"
  }
]

---

# Measured Target: EGFR1 (HER-1) (Homo sapiens (Human), UniProt P00533)
# Sequence (P00533 25-1210): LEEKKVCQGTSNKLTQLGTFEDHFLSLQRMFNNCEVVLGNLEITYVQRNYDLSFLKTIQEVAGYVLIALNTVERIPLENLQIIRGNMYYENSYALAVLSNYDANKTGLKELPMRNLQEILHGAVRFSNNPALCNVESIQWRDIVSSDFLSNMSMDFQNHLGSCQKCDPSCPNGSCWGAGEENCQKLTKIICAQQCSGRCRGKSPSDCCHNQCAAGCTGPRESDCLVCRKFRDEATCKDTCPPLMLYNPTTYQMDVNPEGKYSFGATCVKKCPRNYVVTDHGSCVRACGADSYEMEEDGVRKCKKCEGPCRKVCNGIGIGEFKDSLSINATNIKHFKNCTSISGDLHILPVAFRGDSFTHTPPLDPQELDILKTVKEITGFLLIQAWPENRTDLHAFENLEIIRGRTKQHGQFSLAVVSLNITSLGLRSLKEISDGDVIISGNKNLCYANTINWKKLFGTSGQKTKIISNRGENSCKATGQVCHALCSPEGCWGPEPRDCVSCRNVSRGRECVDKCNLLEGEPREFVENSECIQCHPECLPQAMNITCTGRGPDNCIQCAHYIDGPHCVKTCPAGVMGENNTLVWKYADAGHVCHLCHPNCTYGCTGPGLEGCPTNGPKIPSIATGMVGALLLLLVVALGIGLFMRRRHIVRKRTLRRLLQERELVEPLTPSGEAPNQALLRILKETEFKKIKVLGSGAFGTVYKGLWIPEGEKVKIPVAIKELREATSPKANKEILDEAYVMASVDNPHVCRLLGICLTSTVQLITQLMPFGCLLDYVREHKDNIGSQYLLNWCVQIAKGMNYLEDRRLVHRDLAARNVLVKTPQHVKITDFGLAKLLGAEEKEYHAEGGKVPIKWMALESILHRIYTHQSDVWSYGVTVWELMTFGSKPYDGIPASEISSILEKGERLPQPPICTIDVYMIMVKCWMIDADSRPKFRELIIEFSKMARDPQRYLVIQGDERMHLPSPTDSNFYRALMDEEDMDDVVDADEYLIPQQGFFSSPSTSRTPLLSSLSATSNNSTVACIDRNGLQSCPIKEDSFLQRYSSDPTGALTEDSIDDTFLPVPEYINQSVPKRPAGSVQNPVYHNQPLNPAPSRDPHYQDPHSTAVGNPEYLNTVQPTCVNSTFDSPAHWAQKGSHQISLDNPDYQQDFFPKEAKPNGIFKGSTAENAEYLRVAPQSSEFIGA
pIC50: −log10 of the molar value.
pIC50 overview

[
  {
    "Molecule": "C=CC(=O)Nc1cc2c(Nc3ccc(Br)c(Cl)c3F)ncnc2cc1OC[C@H](C)NC(=O)CN(C)C [Example 163]",
    "pIC50": 7.92
  },
  {
    "Molecule": "C=CC(=O)Nc1cc2c(Nc3ccc(Br)cc3F)ncnc2cc1OCCNC(=O)C1CCCN1C(C)=O (stereo not shown)",
    "pIC50": 7.60
  },
  {
    "Molecule": "C=CC(=O)Nc1cc2c(Nc3ccc(Br)cc3F)ncnc2cc1OCCNC(=S)NCC",
    "pIC50": 7.04
  },
  {
    "Molecule": "C=C(C)C(=O)Nc1cc2c(Nc3ccc(Br)cc3F)ncnc2cc1OCCNC(C)=O",
    "pIC50": 5.99
  },
  {
    "Molecule": "C=CC(=O)Nc1cc2c(Nc3ccc(Br)c(F)c3F)ncnc2cc1OCCNC(=O)CCN1CCCCC1",
    "pIC50": 6.05
  },
  {
    "Molecule": "C=CC(=O)Nc1cc2c(Nc3ccc(Br)c(Cl)c3F)ncnc2cc1OCCNC(=O)CCN1CCCCC1",
    "pIC50": 7.92
  },
  {
    "Molecule": "C=CC(=O)Nc1cc2c(Nc3ccc(Br)cc3F)ncnc2cc1OCCNC(=O)c1cccs1",
    "pIC50": 7.33
  },
  {
    "Molecule": "C=CC(=O)Nc1cc2c(Nc3ccc(Br)cc3F)ncnc2cc1OCCNC(=O)CCN1CCCCC1",
    "pIC50": 7.85
  },
  {
    "Molecule": "C=CC(=O)Nc1cc2c(Nc3ccc(Br)cc3F)ncnc2cc1OCCNC(=O)CCN(CC)CC",
    "pIC50": 7.36
  },
  {
    "Molecule": "C=CC(=O)Nc1cc2c(Nc3ccc(Br)c(Cl)c3F)ncnc2cc1OCCNC(=O)NCC",
    "pIC50": 8.10
  },
  {
    "Molecule": "C=CC(=O)Nc1cc2c(Nc3ccc(Br)cc3F)ncnc2cc1OCCNC(=O)CN1CCCC1",
    "pIC50": 7.35
  },
  {
    "Molecule": "C=CC(=O)Nc1cc2c(Nc3ccc(Br)cc3F)ncnc2cc1OCCNC(=O)CN",
    "pIC50": 7.05
  },
  {
    "Molecule": "C=CC(=O)Nc1cc2c(Nc3cc(Cl)c(Cl)cc3Cl)ncnc2cc1OCCNC(C)=O",
    "pIC50": 6.06
  },
  {
    "Molecule": "C=CC(=O)NCCOc1cc2ncnc(Nc3ccc(Br)cc3F)c2cc1NC(=O)C=C",
    "pIC50": 8.30
  },
  {
    "Molecule": "C=CC(=O)Nc1cc2c(Nc3ccc(Br)cc3F)ncnc2cc1OCCNC(=O)CCOC",
    "pIC50": 7.15
  },
  {
    "Molecule": "C=CC(=O)Nc1cc2c(Nc3ccc(Br)cc3F)ncnc2cc1OCCNC(=O)C(C)C",
    "pIC50": 6.89
  }
]

---

# Measured Target: EGFR1 (HER-1) (Homo sapiens (Human), UniProt P00533)
Grouping rule (IC50): band A = under 0.03 µM, band B = from 0.03 µM up to 0.06 µM, band C = 0.06 µM and over

[
  {
    "Compound": "C=CC(=O)Nc1cc2c(Nc3ccc(Br)c(Cl)c3F)ncnc2cc1OC[C@@H](C)NC(=O)CN(C)C [Example 164]",
    "Assigned Class": "band A"
  },
  {
    "Compound": "C=CC(=O)Nc1cc2c(Nc3ccc(Br)cc3F)ncnc2cc1OCCNC(=O)NCCC",
    "Assigned Class": "band A"
  },
  {
    "Compound": "C=CC(=O)Nc1cc2c(Nc3ccc(Br)cc3F)ncnc2cc1OC(C)CNC(C)=O (centres unmarked)",
    "Assigned Class": "band B"
  },
  {
    "Compound": "C=CC(=O)Nc1cc2c(Nc3ccc(Br)c(Cl)c3F)ncnc2cc1OCCNC(=S)NCC",
    "Assigned Class": "band C"
  },
  {
    "Compound": "C=CC(=O)Nc1cc2c(Nc3ccc(Br)cc3F)ncnc2cc1OCCNC(=O)CNC",
    "Assigned Class": "band C"
  },
  {
    "Compound": "C=CC(=O)Nc1cc2c(Nc3ccc(Br)cc3F)ncnc2cc1OCCNC(=O)C1CCCN1C (centres unmarked)",
    "Assigned Class": "band A"
  },
  {
    "Compound": "C=CC(=O)Nc1cc2c(Nc3ccc(Br)cc3F)ncnc2cc1OCC(CC)NC(=O)CN(C)C (centres unmarked)",
    "Assigned Class": "band A"
  },
  {
    "Compound": "C=CC(=O)Nc1cc2c(Nc3ccc(Br)c(Cl)c3F)ncnc2cc1OCCNC(=O)N1CCOCC1",
    "Assigned Class": "band B"
  },
  {
    "Compound": "C=CC(=O)Nc1cc2c(Nc3ccc(Br)c(F)c3)ncnc2cc1OCCNC(=O)CN(C)C",
    "Assigned Class": "band C"
  },
  {
    "Compound": "C=CC(=O)Nc1cc2c(Nc3ccc(Br)cc3F)ncnc2cc1OC1CCN(C(C)=O)C1 (centres unmarked)",
    "Assigned Class": "band C"
  },
  {
    "Compound": "C=CC(=O)Nc1cc2c(Nc3ccc(Br)cc3F)ncnc2cc1OCCNC(=O)CN(C)C",
    "Assigned Class": "band A"
  },
  {
    "Compound": "C=CC(=O)Nc1cc2c(Nc3ccc(Br)cc3F)ncnc2cc1OCC1CCN(C(=O)CS(C)(=O)=O)CC1",
    "Assigned Class": "band A"
  },
  {
    "Compound": "C=CC(=O)Nc1cc2c(Nc3cc(OC)c(Cl)cc3Cl)ncnc2cc1OCCNC(C)=O",
    "Assigned Class": "band B"
  },
  {
    "Compound": "C=CC(=O)Nc1cc2c(Nc3ccc(Br)cc3F)ncnc2cc1OC1CCCN(C(C)=O)C1 (centres unmarked)",
    "Assigned Class": "band C"
  },
  {
    "Compound": "C=CC(=O)Nc1cc2c(Nc3ccc(Br)c(Cl)c3F)ncnc2cc1OCCNC(=O)NCCC",
    "Assigned Class": "band A"
  },
  {
    "Compound": "C=CC(=O)Nc1cc2c(Nc3cc(F)c(Br)cc3F)ncnc2cc1OCCNC(C)=O",
    "Assigned Class": "band A"
  }
]
